Target: Human Calpain 2/NS1 (Homo sapiens, UniProt P17655)
Sequence (P17655 1-700): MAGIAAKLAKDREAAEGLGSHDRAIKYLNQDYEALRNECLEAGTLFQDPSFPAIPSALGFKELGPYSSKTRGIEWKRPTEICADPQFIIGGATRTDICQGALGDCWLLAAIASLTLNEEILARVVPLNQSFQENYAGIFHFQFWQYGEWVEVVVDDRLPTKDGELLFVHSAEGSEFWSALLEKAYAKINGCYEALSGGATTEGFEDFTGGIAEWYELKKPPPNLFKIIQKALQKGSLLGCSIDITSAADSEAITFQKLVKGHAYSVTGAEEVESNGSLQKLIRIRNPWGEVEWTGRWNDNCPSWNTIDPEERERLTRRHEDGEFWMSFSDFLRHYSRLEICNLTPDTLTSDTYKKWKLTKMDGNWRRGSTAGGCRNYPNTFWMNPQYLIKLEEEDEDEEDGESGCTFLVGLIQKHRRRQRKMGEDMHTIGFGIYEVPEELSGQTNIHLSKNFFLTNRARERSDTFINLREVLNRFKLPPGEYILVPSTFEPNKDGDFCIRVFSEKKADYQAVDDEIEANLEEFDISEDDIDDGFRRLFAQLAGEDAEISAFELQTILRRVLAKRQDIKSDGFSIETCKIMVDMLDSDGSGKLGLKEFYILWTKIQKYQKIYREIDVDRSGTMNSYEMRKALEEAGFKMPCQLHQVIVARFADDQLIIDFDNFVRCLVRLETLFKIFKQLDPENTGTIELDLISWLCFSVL
Sequence (P04632 1-268 partner): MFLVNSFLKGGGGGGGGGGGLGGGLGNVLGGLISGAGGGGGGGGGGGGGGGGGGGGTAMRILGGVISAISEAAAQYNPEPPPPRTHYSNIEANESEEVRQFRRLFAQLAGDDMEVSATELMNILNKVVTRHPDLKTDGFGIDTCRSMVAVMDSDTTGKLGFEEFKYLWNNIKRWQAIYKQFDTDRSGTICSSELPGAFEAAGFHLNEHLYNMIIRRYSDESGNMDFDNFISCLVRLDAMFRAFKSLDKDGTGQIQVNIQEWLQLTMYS
Experiment: Calpain inhibition continuous fluorescence (FRET) assay, Human Calpain 2/NS1
Assay type: biochemical
Details: Column B; read-out: Human Calpain 2/NS1 IC50
pIC50: −log10 of the molar value.
Readout label: pIC50

In [3]: df
Out[3]:
                                smiles_entry                              study_target  measured_result
 0  NC(=O)C(=O)[C@H](Cc1ccccc1)NC(=O)c1cc(Cl)nn1-c1ccccc1  Human Calpain 2/NS1 (Homo sapiens, UniProt P17655)           > 5.52
 1  Cc1cc(C(=O)N[C@@H](Cc2ccccc2)C(=O)C(N)=O)nn1-c1nccs1  Human Calpain 2/NS1 (Homo sapiens, UniProt P17655)     5.00 to 5.52
 2  O=C[C@H](Cc1ccccc1)NC(=O)c1cncn1-c1ncc(-c2ccccc2)cn1  Human Calpain 2/NS1 (Homo sapiens, UniProt P17655)           > 5.52
 3  NC(=O)C(=O)[C@H](Cc1ccccc1)NC(=O)c1cncn1-c1nc2ccccc2[nH]1  Human Calpain 2/NS1 (Homo sapiens, UniProt P17655)           > 5.52
 4  O=C(NC1CC1)C(=O)[C@H](Cc1ccccc1)NC(=O)c1cncn1-c1ncc(-c2ccccc2)s1  Human Calpain 2/NS1 (Homo sapiens, UniProt P17655)           > 5.52
 5  Cc1ccc(-n2nc(C)cc2C(=O)N[C@@H](Cc2ccccc2)C(=O)C(N)=O)nc1  Human Calpain 2/NS1 (Homo sapiens, UniProt P17655)           > 5.52
 6  O=C[C@H](Cc1ccccc1)NC(=O)c1ccnn1-c1ccccc1  Human Calpain 2/NS1 (Homo sapiens, UniProt P17655)           > 5.52
 7  NC(=O)C(=O)[C@H](Cc1ccccc1)NC(=O)c1nnsc1-c1ccccc1  Human Calpain 2/NS1 (Homo sapiens, UniProt P17655)           > 5.52
 8  Cc1cc(C(=O)N[C@@H](Cc2ccccc2)C(=O)C(N)=O)n(-c2ccc(-c3ccccc3F)cc2)n1  Human Calpain 2/NS1 (Homo sapiens, UniProt P17655)           > 5.52
 9  Cc1cc(C(=O)N[C@@H](Cc2ccccc2)C(=O)C(=O)NC2CC2)nn1-c1nc(-c2ccccc2)cs1  Human Calpain 2/NS1 (Homo sapiens, UniProt P17655)           < 5.00
10  CCc1cc(C(=O)N[C@@H](Cc2ccccc2)C(=O)C(N)=O)n(-c2ccccc2)n1  Human Calpain 2/NS1 (Homo sapiens, UniProt P17655)           > 5.52
11  Cc1cc(C(=O)N[C@@H](Cc2ccccc2)C(=O)C(=O)NC2CC2)n(-c2cccc3ncccc23)n1  Human Calpain 2/NS1 (Homo sapiens, UniProt P17655)     5.00 to 5.52
12  NC(=O)C(=O)[C@H](Cc1ccccc1)NC(=O)c1csnc1-c1ccccc1  Human Calpain 2/NS1 (Homo sapiens, UniProt P17655)           > 5.52
13  NC(=O)C(=O)[C@H](Cc1ccccc1)NC(=O)c1cncn1-c1ccccc1  Human Calpain 2/NS1 (Homo sapiens, UniProt P17655)           > 5.52
14  Cc1cc(C(=O)N[C@@H](Cc2ccccc2)C(=O)C(N)=O)n(-c2cncnc2)n1  Human Calpain 2/NS1 (Homo sapiens, UniProt P17655)           > 5.52

Every entry's value here was drawn from patent US11339130B1.
